# TGI per record follows
- Tested on: DU-145 prostate
- Assay Text: NCI tumour cell line growth inhibition, 48 h

Some compounds with known TGI results, for comparison:
COc1cc2nc(-c3cccs3)nc(Cl)c2cc1OC = > 100 µM
COc1ccc2nc(-c3ccccc3)c(=O)[nH]c2c1 = > 100 µM

Data request: Name the recorded TGI for `CN(C)CCCNc1ccc2ncn3c4ccc(O)cc4c(=O)c1c23` .
Data returned: 21.2 µM

Data request: Name the recorded TGI for `O=c1cc(NNc2cccc(Cl)c2)[nH]c(=O)[nH]1` .
Data returned: > 100 µM

Data request: Name the recorded TGI for CS(=O)(=O)N1CC(CCl)c2ccc(O)cc21 (stereo unspecified) .
Data returned: 11.3 µM

Data request: Name the recorded TGI for `Cn1cc(S(=O)(=O)N2CCC3=Cc4c(cnn4-c4ccc(F)cc4)C[C@]3(C(=O)c3cc(C(F)(F)F)ccn3)C2)cn1` .
Data returned: > 100 µM

The measurements presented in this section are drawn from PubChem BioAssay (NCI).
